- Tested on: NCI-H226 lung
- assay-explanation: NCI tumour cell line growth inhibition, 48 h
observable: GI50

• COc1cc(-c2cc3ncccc3c3nc(OCCN(C)C)c4cccnc4c23)cc(OC)c1OC = 0.623 µM
• COc1ccc(/C=C/C(=O)c2c(O)ccc3c(C)c(C(=O)O)oc23)cc1 = 45.1 µM
• C[C@@H](N)COc1ccc(-c2cnc3ccc(N[C@H](C)c4cccc(F)c4)nn23)cc1 = 1.62 µM
• Oc1c(C(Nc2ccccn2)c2cccc(Oc3ccccc3)c2)ccc2cccnc12 (stereo not given) = 1.36 µM
• O=C(Cn1c(C(=O)c2ccc(Cl)cc2)nc(-c2ccc(Cl)cc2)c1-c1ccc(Cl)cc1)c1ccccc1 = > 100 µM
